target-of-assay: B*0702 (Homo sapiens, UniProt P01889)
Construct: endogenous in cells
assay-summary: Competition binding assay using soluble HLA class I
Where a SMILES comes first, the peptide text is derived from it.
Recorded IC50 for the following molecules

[
  {
    "molecule": "CC(C)C[C@H](NC(=O)[C@H](CCCNC(=N)N)NC(=O)[C@@H]1CCCN1C(=O)CNC(=O)[C@H](CCCNC(=N)N)NC(=O)[C@H](CCCNC(=N)N)NC(=O)[C@@H]1CCCN1C(=O)[C@@H](N)CC(C)C)C(=O)NCC(=O)O",
    "target-of-assay": "B*0702 (Homo sapiens, UniProt P01889)",
    "value-units": "µM",
    "IC50": 0.124
  },
  {
    "molecule": "CC(C)C[C@H](NC(=O)CNC(=O)[C@H](CC(C)C)NC(=O)[C@H](C)NC(=O)[C@H](CO)NC(=O)[C@H](CC(C)C)NC(=O)[C@H](CCCCN)NC(=O)[C@H](C)NC(=O)[C@H](C)N)C(=O)O (H-AAKLSALGL-OH; N-terminus and C-terminus assumed)",
    "target-of-assay": "B*0702 (Homo sapiens, UniProt P01889)",
    "value-units": "µM",
    "IC50": 0.277
  },
  {
    "molecule": "CC(C)C[C@H](NC(=O)[C@@H]1CCCN1C(=O)[C@H](C)N)C(=O)NCC(=O)NCC(=O)N[C@@H](C)C(=O)N[C@@H](C)C(=O)N[C@@H](CCCNC(=N)N)C(=O)N[C@@H](C)C(=O)O",
    "target-of-assay": "B*0702 (Homo sapiens, UniProt P01889)",
    "value-units": "µM",
    "IC50": 0.115
  },
  {
    "molecule": "C[C@H](N)C(=O)N1CCC[C@H]1C(=O)N[C@H](C(=O)NCC(=O)N[C@@H](CO)C(=O)NCC(=O)N[C@@H](CCCCN)C(=O)N[C@@H](CO)C(=O)N[C@H](C(=O)O)[C@@H](C)O)[C@@H](C)O (H-APTGSGKST-OH; N-terminus and C-terminus assumed)",
    "target-of-assay": "B*0702 (Homo sapiens, UniProt P01889)",
    "value-units": "µM",
    "IC50": 0.37
  }
]

---

target-of-assay: HLA-A02 (Homo sapiens, UniProt P04439, D140Y/D185E/D98H/E176V/E277Q/G131W/G231S/I119V/I121R/I166T/I218V/L300P/L318F/N151K/N90K/P208A/P217A/Q86G/Q94H/R138H/R169H/T345S)
assay-summary: Competition binding assay using soluble HLA class I
pIC50: −log10 of the molar value. Where a SMILES comes first, the peptide text is derived from it.
Recorded pIC50 for the following compounds

[
  {
    "compound": "CC[C@H](C)[C@H](NC(=O)[C@H](CS)NC(=O)CNC(=O)[C@H](CC(C)C)NC(=O)[C@H](CC(C)C)NC(=O)CN)C(=O)N[C@H](C(=O)N[C@H](C(=O)N[C@@H](CO)C(=O)N[C@@H](CC(C)C)C(=O)O)[C@@H](C)O)[C@@H](C)CC",
    "pIC50": 7.59
  },
  {
    "compound": "CSCC[C@H](NC(=O)CN)C(=O)N[C@@H](Cc1ccccc1)C(=O)N[C@@H](CC(=O)O)C(=O)N[C@@H](CO)C(=O)N[C@@H](CO)C(=O)N[C@H](C(=O)N[C@@H](CC(C)C)C(=O)N[C@@H](CS)C(=O)O)C(C)C (H-GMFDSSVLC-OH)",
    "pIC50": 6.94
  },
  {
    "compound": "CC(C)C[C@H](NC(=O)[C@H](CC(C)C)NC(=O)[C@@H]1CCCN1C(=O)[C@@H](NC(=O)[C@@H]1CCCN1C(=O)CNC(=O)[C@H](Cc1c[nH]cn1)NC(=O)[C@H](CC(C)C)NC(=O)[C@@H](N)[C@@H](C)O)[C@@H](C)O)C(=O)O",
    "pIC50": 7.17
  },
  {
    "compound": "CC[C@H](C)[C@H](N)C(=O)N[C@@H](CCSC)C(=O)N[C@@H](C)C(=O)N[C@@H](CCCCN)C(=O)N[C@@H](CC(N)=O)C(=O)N[C@@H](CCC(=O)O)C(=O)N[C@H](C(=O)N[C@@H](Cc1ccccc1)C(=O)N[C@@H](CS)C(=O)N[C@H](C(=O)O)C(C)C)C(C)C (H-IMAKNEVFCV-OH; N-terminus and C-terminus assumed)",
    "pIC50": 6.70
  },
  {
    "compound": "CC(C)[C@H](NC(=O)[C@@H](NC(=O)[C@H](C)NC(=O)[C@H](CCC(N)=O)NC(=O)[C@@H](N)Cc1ccc(O)cc1)[C@@H](C)O)C(=O)N[C@@H](CS)C(=O)N[C@@H](C)C(=O)N[C@@H](CCCNC(=N)N)C(=O)N[C@@H](C)C(=O)O (H-YQATVCARA-OH)",
    "pIC50": 7.70
  },
  {
    "compound": "CC[C@H](C)[C@H](NC(=O)[C@H](Cc1c[nH]cn1)NC(=O)[C@@H](NC(=O)[C@H](CC(C)C)NC(=O)CNC(=O)[C@@H](NC(=O)[C@H](Cc1ccccc1)NC(=O)[C@@H](NC(=O)[C@@H](N)CO)C(C)C)[C@@H](C)O)[C@@H](C)CC)C(=O)O (H-SVFTGLIHI-OH)",
    "pIC50": 7.00
  },
  {
    "compound": "CC[C@H](C)[C@H](NC(=O)[C@@H](NC(=O)[C@@H](N)CC(N)=O)[C@@H](C)CC)C(=O)N[C@@H](CCSC)C(=O)N[C@@H](Cc1ccc(O)cc1)C(=O)N[C@@H](C)C(=O)N1CCC[C@H]1C(=O)N[C@H](C(=O)N[C@@H](CC(C)C)C(=O)O)[C@@H](C)O",
    "pIC50": 7.15
  }
]

The reported measurements were obtained from patent US20060093617A1.
